This section presents compounds with their documented growth values.
System: OVCAR-3 ovarian
assay.comment: NCI-60 one-dose screen, 48 h (100 = growth as untreated, 0 = no growth, -100 = all killed)
study.conditions: 10 µM
This is part of a sample that, as a whole, favours compounds with a hit. Of some 83,000 tested, about 20% had one in any assay.
Respond with the bare value in %.

Example compounds with recorded growth:
[
  {
    "chemical.structure": "CCN(CC)CCNc1ccc(CO)c2oc3cc(Cl)ccc3c(=O)c12",
    "tested.on": "OVCAR-3 ovarian",
    "value.observed": 91.8
  },
  {
    "chemical.structure": "O=[P@@]1(c2ccccc2)O[C@H](COCc2ccccc2)[C@@H](OCc2ccccc2)[C@H](OCc2ccccc2)[C@H]1O",
    "tested.on": "OVCAR-3 ovarian",
    "value.observed": 59.5
  }
]

Please look at the following compound next.
growth recorded for this compound, CCN(CC)CCSCCN(CC)CC , is 108
